FYI, the data here is from paper PMC5003509.

Assay: In vivo pharmacokinetics in CD1 mice
Settings: male, CD1, mouse, plasma, iv, 10 mg/kg
QUANTITY_NAME: AUC(0-t) (ng·h/mL)
One number for each entry, in ng·h/mL.

Field request: AUC(0-t) | item: O=c1[nH]nc(CCc2cc(F)cc(F)c2)cc1O [8b, reference compound]
12700
